Give measured MIC90 for each item. Keep answers brief.
test system: M. tuberculosis H37Rv:pCHERRY3; assay: microbe, parasite or virus in culture; assay type: cell-based; details: Mycobacterium tuberculosis
Give the number first and the unit second.

stdin: What does the record list as MIC90 for Cc1c(Cl)c(=O)oc2cc(OCCN3CCC(Cc4ccccc4)CC3)ccc12 ?
stdout: 40.5 µM

stdin: Field entry: Cc1c(C#N)c(=O)oc2cc(OCCN3CCN(Cc4ccc(Br)cc4)CC3)ccc12
stdout: 45.2 µM

stdin: Could you do the same for O=c1cc(C(F)(F)F)c2ccc(OCCN3CCN(Cc4ccc(Br)cc4)CC3)cc2o1 , please?
stdout: 43.8 µM

stdin: Now consider Cc1cc(=O)oc2cc(OCCN3CCN(Cc4ccc(Br)cc4)CC3)ccc12 .
stdout: 40.9 µM

Source: paper PMC6151660
